target: Insulin receptor (Homo sapiens) (UniProt P06213); conditions: at 1 µM
Sequence (P06213 28-758 limits assumed): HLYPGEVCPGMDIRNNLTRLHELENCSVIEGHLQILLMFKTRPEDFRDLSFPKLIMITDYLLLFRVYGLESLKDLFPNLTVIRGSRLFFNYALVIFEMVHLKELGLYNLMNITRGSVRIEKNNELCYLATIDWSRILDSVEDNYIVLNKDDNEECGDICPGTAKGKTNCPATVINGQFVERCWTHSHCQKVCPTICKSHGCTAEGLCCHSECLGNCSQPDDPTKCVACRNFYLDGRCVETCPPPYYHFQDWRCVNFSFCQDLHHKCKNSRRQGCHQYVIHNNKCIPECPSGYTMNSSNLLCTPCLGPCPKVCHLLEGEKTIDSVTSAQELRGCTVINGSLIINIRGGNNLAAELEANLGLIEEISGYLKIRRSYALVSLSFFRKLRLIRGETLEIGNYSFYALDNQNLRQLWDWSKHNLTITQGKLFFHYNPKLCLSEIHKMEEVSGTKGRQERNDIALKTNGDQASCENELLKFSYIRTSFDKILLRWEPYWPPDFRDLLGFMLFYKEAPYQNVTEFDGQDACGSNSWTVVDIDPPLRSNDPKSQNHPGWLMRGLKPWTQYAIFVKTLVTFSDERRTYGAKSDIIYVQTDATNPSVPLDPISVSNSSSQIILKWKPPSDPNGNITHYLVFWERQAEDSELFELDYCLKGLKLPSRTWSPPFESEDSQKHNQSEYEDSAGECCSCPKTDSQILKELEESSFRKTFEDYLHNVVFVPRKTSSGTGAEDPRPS
Sequence (P06213 763-1382 limits assumed): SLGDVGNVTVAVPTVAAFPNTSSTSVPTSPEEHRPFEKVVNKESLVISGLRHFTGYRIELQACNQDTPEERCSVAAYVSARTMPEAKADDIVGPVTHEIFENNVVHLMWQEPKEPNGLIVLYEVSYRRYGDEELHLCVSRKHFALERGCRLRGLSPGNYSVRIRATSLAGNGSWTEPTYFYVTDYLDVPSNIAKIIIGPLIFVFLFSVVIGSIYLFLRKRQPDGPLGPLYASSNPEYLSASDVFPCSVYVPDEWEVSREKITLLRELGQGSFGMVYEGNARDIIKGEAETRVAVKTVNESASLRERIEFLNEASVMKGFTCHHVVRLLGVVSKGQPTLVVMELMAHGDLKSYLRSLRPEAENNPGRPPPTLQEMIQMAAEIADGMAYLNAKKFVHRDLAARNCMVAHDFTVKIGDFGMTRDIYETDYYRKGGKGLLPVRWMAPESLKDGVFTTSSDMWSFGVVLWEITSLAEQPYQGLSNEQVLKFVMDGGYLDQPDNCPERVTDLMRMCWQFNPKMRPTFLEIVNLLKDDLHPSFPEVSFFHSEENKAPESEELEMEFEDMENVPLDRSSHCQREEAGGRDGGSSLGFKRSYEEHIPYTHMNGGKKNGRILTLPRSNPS
Each item that follows carries a reported residual activity.

smi: CC(C)(C)n1nc(Cc2cccc3ccccc23)c2c(N)ncnc21
tested.on: Insulin receptor (Homo sapiens) (UniProt P06213)
unit.symbol: %
residual activity: 95
--
smi: O=C(O)/C=C/c1cc(Br)c(Br)c(Br)c1Br
tested.on: Insulin receptor (Homo sapiens) (UniProt P06213)
unit.symbol: %
residual activity: 100
--
smi: Cn1sc(=O)n(Cc2ccccc2)c1=O
tested.on: Insulin receptor (Homo sapiens) (UniProt P06213)
unit.symbol: %
residual activity: 96
--
smi: COc1cc2nccc(Oc3ccc(NC(=S)NC(=O)c4ccccc4C)cc3)c2cc1OC
tested.on: Insulin receptor (Homo sapiens) (UniProt P06213)
unit.symbol: %
residual activity: 97
--
smi: CCOC(=O)c1c(C)[nH]c(/C=C2\C(=O)Nc3ccccc32)c1C
tested.on: Insulin receptor (Homo sapiens) (UniProt P06213)
unit.symbol: %
residual activity: 84
